src = PubChem BioAssay AID743117

Can you tell me concentration for >50% inhibition for the items I'm about to list?
System: ABHD12 Selectivity
Test: LYPLA1/LYPLA2 inhibition with serine hydrolase anti-target selectivity, late-stage follow-up, selectivity assay for LYPLA1/LYPLA2 inhibitor project, cell lysate, mouse brain membrane proteome, FP-Rh fluorescence, powders (AID 743117)
Conditions: gel-based ABPP FP-Rh fluorescence, measured here: ABHD12 Selectivity, anti-target concentration >50% inhibition, stronger effect = lower value

Observe how each entry below is paired with its result.
# molecule, measuredAttribute, result
data = [
    ("O=C(ON1C(=O)C2CN(C(=O)c3ccc(F)c([N+](=O)[O-])c3)CCN2C1=O)N1CCC(CCc2ccc(Cl)cc2)CC1 (stereo not drawn)", "concentration for >50% inhibition", "10 µM"),
    ("CC(C)(C)OC(=O)N1CCN2C(=O)N(OC(=O)N3CCN(CCc4ccccc4)CC3)C(=O)C2C1 (stereo not drawn)", "concentration for >50% inhibition", "100 µM"),
]

Given Cc1ccc(C(=O)N2CCN3C(=O)N(OC(=O)N4CCC(CCc5ccc(Cl)cc5)CC4)C(=O)C3C2)cc1 (stereo not drawn) , state its recorded concentration for >50% inhibition.
10 µM
